Experiment: modulators of CIT2-GFP expression in yeast, confirmation, S. cerevisiae, GFP fusion, cherry picks, mother/daughter gates (AID 2274)
Details: S. cerevisiae CIT2-GFP strain, flow cytometry, 3 h; measured here: daughter cell gate; at 10 µM; stronger effect = higher value
Listed compounds paired with reported GFP response, % of DMSO
The response must be a number in % with no trailing unit.

> print(dat)
                                   compound  value
1  Cc1ccc(C(c2cc(Cl)c3cccnc3c2O)N2CCN(C)CC2)cc1 (stereo not given)   97.4
2           c1ccc(CSc2ccc(-c3ccccn3)nn2)cc1   97.4
3   Cc1nn2c(N3CCCC3)cc(C(C)C)nc2c1-c1ccccc1   97.4

### Prompt GFP response, % of DMSO for `CC(C)(C)n1nc(-c2ccc(Cl)cc2)c2c(N)ncnc21` ?
### Response 46.1

###

Experiment: modulators of MEP2-GFP levels in yeast, confirmation, S. cerevisiae, flow cytometry GFP, cherry picks (AID 2272);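 further: ratio of well signal to plate DMSO mean so 100% equals DMSO level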
Conditions: S. cerevisiae MEP2-GFP strain, 3 h, at 10 µM
Activity calls are given as the source filed them.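 The calls were made as follows: active = GFP response above 150% of the DMSO control; inconclusive = Fewer than 70 cells counted for a yeast strain; inactive = the rest.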
The categories you may choose from are active, inactive

### Prompt Just curious, what result did `Cc1ccc(/C=C/C(=O)c2ccccc2)cc1` get here?
### Response inactive

### Prompt Just curious, what result did `Cc1cccn2c(=O)c(/C=C(\C#N)C(N)=O)c(N3CCN(Cc4ccc5c(c4)OCO5)CC3)nc12` get here?
### Response inactive

### Prompt Just curious, what result did `O=C(c1ccccc1F)N1CCN(c2cccc(C(F)(F)F)c2)CC1` get here?
### Response inactive

### Prompt Just curious, what result did `CCc1nnc(NC(=O)c2nc(S(=O)(=O)Cc3ccccc3)ncc2Cl)s1` get here?
### Response inactive

### Prompt Just curious, what result did `Cc1nn2c(NCc3ccccn3)c3c(nc2c1-c1ccccc1)CCC3` get here?
### Response inactive

###

Experiment: LAP4-GFP expression modulators in yeast, confirmation, cell-based, cherry picks, flow cytometry, mother/daughter gates (AID 2271);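 further: ratio of sample to DMSO plate mean so 100% equals DMSO level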
Settings: S. cerevisiae LAP4-GFP strain, 3 h, measured here: daughter cell gate response, at 10 µM, stronger effect = higher value, 100 means same as DMSO control
Listed compounds paired with reported GFP response relative to DMSO
The response must be a number in % with no trailing unit.

> print(dat)
                                   compound  value
1  O=c1cc(-c2c(F)c(F)c(F)c(F)c2F)oc2c(F)c(F)c(F)c(F)c12    120
2  COc1cccc(/C=N\NC(=O)c2cc(OCC(F)(F)F)ccc2OCC(F)(F)F)c1   92.8
3         NC(=O)c1ccccc1-c1nc(-c2ccccc2)no1   97.5
4  O=C1C2C3C=CC(CO)(O3)C2C(=O)N1c1ccc(-c2ccccc2)cc1 (stereo unspecified)    156
5            O=C(O)CCc1ccc(-c2ccc(Br)cc2)o1    119

### Prompt GFP response relative to DMSO for `Cc1ccc2c(c1)/C(=C/c1ccc(F)cc1)C(=O)N2` ?
### Response 110

### Prompt GFP response relative to DMSO for `NC(=O)c1ccc(Oc2ccc(-c3nnco3)cc2)c([N+](=O)[O-])c1` ?
### Response 95.6

### Prompt GFP response relative to DMSO for `COc1cccc2c1Oc1ncccc1N(C(=O)CCC(=O)NCc1ccccc1Cl)C2` ?
### Response 97.5

### Prompt GFP response relative to DMSO for `O=C(O)CCCn1nc(-c2ccccc2)c2ccccc21` ?
### Response 112

### Prompt GFP response relative to DMSO for `O=c1[nH]c(CCl)nc2cc(-c3ccc(Cl)cc3)sc12` ?
### Response 99.1

### Prompt GFP response relative to DMSO for `CCOC(=O)CNc1c(-c2ccc(OC)cc2)nc2ccc(Cl)cn12` ?
### Response 98.7
